Target: KcsA (Streptomyces lividans, UniProt P0A334)
Sequence (P0A334 1-160): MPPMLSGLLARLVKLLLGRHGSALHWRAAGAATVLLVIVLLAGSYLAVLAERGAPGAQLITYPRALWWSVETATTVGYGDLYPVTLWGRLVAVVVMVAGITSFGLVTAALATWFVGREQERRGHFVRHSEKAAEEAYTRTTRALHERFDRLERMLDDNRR
assay-endpoint: pKd
The meaning of pKd here: minus log10 of the concentration in molar units.

Query block: For CCCCCCCC[N+](CCCCCCCC)(CCCCCCCC)CCCCCCCC , what is its reported pKd?
Result block: 6.74
